# measurement-description: Antagonist activity against Streptococcus pneumoniae D39-pcomX-lacZ strain expressing ComD1 receptor assessed as inhibition of ComD1 receptor activity by beta-galactosidase reporter gene assay
property: IC50 (nM)
Report as a plain number; the unit nM is understood.

Please fill in: IC50 reported for H-AMRLSKFFRKFILQRKK-OH = 217

====

# measurement-description: Antagonist activity against Streptococcus pneumoniae D39-pcomX-lacZ strain expressing ComD1 receptor assessed as inhibition of ComD1 receptor activity by beta-galactosidase reporter gene assay
Where a SMILES comes first, the peptide text is derived from it. [ ]: non-standard residue; d: D form. Orn = NCCC[C@H](N)C(=O)O; Dab = NCC[C@H](N)C(=O)O
property: IC50
The reply should read as a number followed by its unit.

Quick note, IC50 for CC[C@H](C)[C@H](NC(=O)[C@H](Cc1ccccc1)NC(=O)[C@H](CC(=O)O)NC(=O)[C@H](CCCNC(=N)N)NC(=O)[C@H](Cc1ccccc1)NC(=O)[C@H](Cc1ccccc1)NC(=O)[C@H](CCCCN)NC(=O)[C@H](CO)NC(=O)[C@H](CC(C)C)NC(=O)[C@H](CCCNC(=N)N)NC(=O)[C@H](CCSC)NC(=O)[C@H](C)N)C(=O)N[C@@H](CC(C)C)C(=O)N[C@@H](CCC(N)=O)C(=O)N[C@@H](CCCNC(=N)N)C(=O)N[C@@H](CCCCN)C(=O)N[C@@H](CCCCN)C(=O)O landed at 85.7 nM

Quick note, IC50 for CC[C@H](C)[C@H](NC(=O)[C@H](Cc1ccccc1)NC(=O)[C@H](CCCCN)NC(=O)[C@H](CCCNC(=N)N)NC(=O)[C@H](Cc1ccccc1)NC(=O)[C@H](Cc1ccccc1)NC(=O)[C@H](CCCN)NC(=O)[C@H](CO)NC(=O)[C@H](CC(C)C)NC(=O)[C@H](CCCNC(=N)N)NC(=O)[C@H](CCSC)NC(=O)[C@H](C)N)C(=O)N[C@@H](CC(C)C)C(=O)N[C@@H](CCC(N)=O)C(=O)N[C@@H](CCCNC(=N)N)C(=O)N[C@@H](CCCCN)C(=O)N[C@@H](CCCCN)C(=O)O (H-AMRLS[Orn]FFRKFILQRKK-OH) landed at 339 nM

GET /value?item= CC[C@H](C)[C@H](NC(=O)[C@H](Cc1ccccc1)NC(=O)[C@H](CCCCN)NC(=O)[C@H](CCCNC(=N)N)NC(=O)[C@H](Cc1ccccc1)NC(=O)[C@H](Cc1ccccc1)NC(=O)[C@H](CCN)NC(=O)[C@H](CO)NC(=O)[C@H](CC(C)C)NC(=O)[C@H](CCCNC(=N)N)NC(=O)[C@H](CCSC)NC(=O)[C@H](C)N)C(=O)N[C@@H](CC(C)C)C(=O)N[C@@H](CCC(N)=O)C(=O)N[C@@H](CCCNC(=N)N)C(=O)N[C@@H](CCCCN)C(=O)N[C@@H](CCCCN)C(=O)O (H-AMRLS[Dab]FFRKFILQRKK-OH) &field=IC50 returns 784 nM
